The measurements presented in this section are drawn from PubChem BioAssay (NCI).

System: SR leukemia
Test: NCI tumour cell line growth inhibition, 48 h
What TGI was measured for each of the following?

Worked cases, TGI given:
# Compound, Target of assay, Reported measurement
rows = [
    ("CC(C)c1ccc(C(=O)Nc2nc3ccc(O)cc3s2)cc1", "SR leukemia", "68.7 µM"),
    ("CC(C)CS(=O)(=O)/C(=C(\\c1ccc(Br)cc1)S(=O)(=O)CC(C)C)c1ccc(Br)cc1", "SR leukemia", "> 100 µM"),
    ("O=c1[nH]n(Cc2ccccc2Cl)c2ccc([N+](=O)[O-])cc12", "SR leukemia", "> 100 µM"),
    ("CCN(CC)C(=C(C(Cl)=C(Cl)Cl)[N+](=O)[O-])N(CC)CC", "SR leukemia", "> 100 µM"),
]

Could I get TGI for every one of these entries?
1. CCN1CCN(C(=O)[C@]23CC[C@@H](C)[C@H](C)[C@@H]2C2=CC[C@@H]4[C@@]5(C)C/C(=C/c6ccncc6)C(=O)C(C)(C)[C@@H]5CC[C@@]4(C)[C@]2(C)CC3)CC1
2. CC(C)=CCC[C@@H](C)C1=C(O)C(O)C(C)=C2N=C(c3ccccc3)C(=O)OC21 (some centres not stated)
3. CN1C2CCC1CC(CCOC(c1ccc(F)cc1)c1ccc(F)cc1)C2 (configuration not stated)
4. COC(=O)c1cc2c(cc1Cl)SC(N(N(C)C)S(=O)(=O)c1ccc(Br)s1)=NS2(=O)=O
5. O=c1c(Oc2ccc(F)cc2F)cc2cnc(NC3CCOCC3)nc2n1C1CCS(=O)(=O)CC1

["5.29 µM", "> 20.5 µM", "38.2 µM", "35.4 µM", "> 25 µM"]

Could I get TGI for every one of these entries?
1. CCN(CC)CCC(=O)NC1c2ccc(Cl)cc2Oc2c(C)cccc21 (configuration not stated)
2. O=C(Nc1cccc2ccccc12)Nn1cnnc1
3. O=C(/C=C/c1ccc([N+](=O)[O-])o1)N1CCN(Cc2ccccc2)CC1
4. CCCCCCCCC[C@@H]1CC(=O)OCC2OC(O[C@H](CCCCCCCCC)CC(=O)OCC3OC(O[C@H](CCCCCCCCC)CC(=O)OCC4OC(O1)C(O)C(O)C4O)C(O)C(O)C3O)C(O)C(O)C2O (some centres not stated)

1. 39.1 µM
2. > 100 µM
3. 38.7 µM
4. 20.6 µM

Could I get TGI for every one of these entries?
1. ClCc1cccc(Cn2cnc3c(NC45CC6CC(CC(C6)C4)C5)ncnc32)c1
2. COC(=O)c1cc2c(o1)Sc1ccccc1NC2=O
3. CCNC(=O)CCN(C(=O)O)S(=O)(=O)c1ccc(NC(=O)c2ccccc2)cc1
4. CN[C@@H](C)C(=O)N[C@H](C(=O)N1CCC[C@H]1C(=O)N[C@H]1c2ccccc2C[C@H]1OCC#CC#CCO[C@@H]1Cc2ccccc2[C@@H]1NC(=O)[C@@H]1CCCN1C(=O)[C@@H](NC(=O)[C@H](C)NC)C1CCCCC1)C1CCCCC1

1. 18.9 µM
2. > 100 µM
3. > 100 µM
4. 3.16 µM

Could I get TGI for every one of these entries?
1. CCOC(=O)Nc1nc2ccc(Cn3cccc3)cc2[nH]1
2. C=CC1(C(=O)O)CCC(C(C)(C)C)CC1 (configuration not stated)
3. NOCC(=O)O
4. C=C(Cl)c1c(OC)cccc1OCc1ccccc1
5. CC/C(C)=C1\CCC(CN2CCOCC2)C1=O (configuration not stated)
6. CC(=O)c1cccc(N2COC(C)(C)c3nc4ccccc4n3C2)c1
7. COc1cc(/C=C(\C#N)c2nc3ccccc3o2)ccc1O

["> 36.2 µM", "> 100 µM", "> 100 µM", "> 100 µM", "49.8 µM", "> 100 µM", "> 100 µM"]

Could I get TGI for every one of these entries?
1. COc1ccc(NC(=O)C(=O)C(C(=O)c2ccccc2)C2OC(=O)c3ccccc32)c([N+](=O)[O-])c1 (configuration not stated)
2. Ic1ncnc2c1ncn2C1CCCO1 (configuration not stated)
3. COC(=O)CCc1cc(OC)c2c(c1)C(C(=O)OC)C(c1ccc(OC)c(OC)c1)O2 (configuration not stated)
4. O=C1C(=O)c2c(oc(=O)c3ccccc23)-c2ccccc21

["> 100 µM", "> 100 µM", "> 100 µM", "> 25 µM"]

Could I get TGI for every one of these entries?
1. O=C(Nc1cc(Cl)c(Cl)cc1Cl)C(=O)C1C=CCS1(=O)=O (configuration not stated)
2. Cc1cc([C@H](C#N)c2nc3ccccc3[nH]2)nc(Cl)n1
3. Cc1c(NC(=O)C(C)(C)Br)c(=O)oc2c(C)c3occc(=O)c3cc12
4. COc1ccc(CN(C)c2ccc(CO)c(Cl)c2)cc1

1: > 100 µM; 2: > 100 µM; 3: > 100 µM; 4: > 100 µM
